# experimental protocol: basal RPMI8226 mitochondrial membrane potential changes, profiling panel, cell-based, JC-1 fluorescence, 24 h, 100 nL compound (AID 1169); note: test concentration not given here
# test settings: RPMI8226 myeloma, JC-1 mitochondrial potential fluorescence, higher = more signal
Outcome label depends on z-score relative to 0.2: at/above gives TRUE, below gives FALSE.

# compound, assigned label
records = [
    ("C#CCCCON=C1C[C@@H](O)[C@@H](O)[C@@H]2[C@@H]3C(=O)N(CCC(=O)OCC)C(=O)[C@@H]3CC[C@H]12", "FALSE"),
    ("CON=C1[C@H]2CCn3c(=O)n(-c4ccccc4)c(=O)n3[C@H]2[C@H](O)[C@@H]2O[C@H]12", "TRUE"),
    ("CO[C@@H]1COC(=O)[C@@H]2CCCN2C(=O)[C@@H](C)COC(=O)CC=C[C@H]1C", "FALSE"),
    ("COC(=O)CC=C[C@@H](C)[C@@H](C=NOC(C)CN1CCCc2nc(C)c(C)cc21)OC (stereo partly drawn)", "FALSE"),
    ("COC(=O)CC=C[C@@H](C)[C@@H](C=NO[C@@H](C)c1cc(-c2c(C)cc(C)cc2C)no1)NS(=O)(=O)c1ccc(C)cc1", "TRUE"),
    ("CO[C@@H]1C=CCC(=O)N[C@@H](C)C(=O)OC[C@@H](OC)[C@H](C)CCCC(=O)OC[C@H]1C", "TRUE"),
    ("CO[C@@H]1COC(=O)[C@H](CCSC)NC(=O)CC=C[C@@H](C)COC(=O)CCC[C@H]1C", "FALSE"),
    ("O=C(NN=C1C[C@@H](O)[C@@H](O)[C@@H]2[C@@H]3C(=O)N(Cc4ccccc4)C(=O)[C@@H]3CC[C@@H]12)OCc1ccccc1", "FALSE"),
]

---

# experimental protocol: osmotic lysis modulators in infected erythrocytes, primary screen, PSAC antagonist project, cell-based, P. falciparum Indochina, OD700, 3 h (AID 1156)
# test settings: higher = more signal, called active from +8 up or from −8 down

# sample smiles, z-score
rows = [
    ("COC(=O)CC=C[C@@H](C)[C@@H](C=NO[C@@H]1O[C@H](COC(C)=O)[C@@H](OC(C)=O)[C@H](OC(C)=O)[C@H]1OC(C)=O)NS(=O)(=O)c1ccc(C)cc1", 1.1),
    ("COC(=O)CC=C[C@@H](C)[C@@H](C=NO[C@@H](C)c1cn([C@H](CO)Cc2ccccc2)nn1)NS(=O)(=O)c1ccc(C)cc1", -0.598),
    ("COC(=O)[C@H]1[C@@H](O)[C@@]2(O)c3ccccc3O[C@@]2(c2ccccc2)[C@@H]1c1ccccc1", 0.296),
]

---

# experimental protocol: basal S. cerevisiae growth modulation, no modifier, primary screen, OD600, strain BY4716, 24 h, basal condition (AID 1173)
# test settings: OD600, 24 h, higher = more signal, called active from +8 up or from −8 down
Label YES when z-score is at or above 0.8; anything below gets NO.

# compound, assigned label
records = [
    ("Cc1ccc(S(=O)(=O)N[C@@H]2COC(=O)[C@@H](C)COC(=O)CC=C[C@H]2C)cc1", "NO"),
    ("CCOC(=O)[C@H](CC(C)C)NC(=O)CCC1CC(OC(=O)NCCc2ccc(F)cc2)CC2(CCCC(COC(=O)NCCc3ccccc3OC)O2)O1 (some centres not stated)", "NO"),
    ("CO[C@H](C1CCCCC1)[C@H](C)C=CCC(=O)OCCCc1ccccc1", "YES"),
    ("CCOC(=O)[C@H](CC(C)C)NC(=O)CCC1CC(OC(=O)NCCc2ccc(F)cc2)CC2(CCCC(COC(=O)NCC3CCCCC3)O2)O1 (some centres not stated)", "NO"),
    ("C#CCCCON=C1C[C@@H](O)[C@@H](O)[C@@H]2[C@@H]3C(=O)N(Cc4ccccc4)C(=O)[C@@H]3CC[C@@H]12", "NO"),
    ("CCOC(=O)[C@H](Cc1ccccc1)NC(=O)CCC1CC(OC(=O)NCc2ccc3c(c2)OCO3)CC2(CCCC(COC(=O)NCCc3ccccc3OC)O2)O1 (some centres not stated)", "YES"),
    ("CO[C@@H]1COC(=O)CC=C[C@@H](C)[C@@H]2C=C[C@H](O)[C@@H](COC(=O)CC=C[C@H]1C)O2", "NO"),
]

---

# target system: Calmodulin-1 (Homo sapiens) (UniProt P0DP23)
# experimental protocol: CALM1 binders on microarrays, EGTA buffer, profiling panel, biochemical, small-molecule microarray, Cy5-labelled CALM1 (AID 1111);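 note: labelled calmodulin applied in Tris saline Tween buffer holding calcium plus EGTA and DTT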
# test settings: Cy5-CALM1 binding fluorescence, higher = more signal
reported endpoint: composite z-score

# compound, reported endpoint, endpoint result
rows = [
    ("CON=C[C@@H](NS(=O)(=O)c1ccc(C)cc1)[C@H](C)C=CCC(=O)OC", "composite z-score", -0.654),
    ("CC(C)=CCCC(C)=CCON=C1C[C@@H](O)[C@@H](O)[C@@H]2[C@@H]3C(=O)N(c4ccc(F)cc4F)C(=O)[C@@H]3CC[C@@H]12", "composite z-score", -0.343),
    ("CCN1C(=O)[C@H]2[C@H]3[C@H](O)[C@H](O)CC(=NO[C@@H](C)c4cn([C@H](CO)Cc5ccccc5)nn4)[C@@H]3CC[C@H]2C1=O", "composite z-score", 0.711),
    ("COc1ccc(O[C@H]2C=C[C@@H](c3ccccc3)O[C@@H]2CON=C(C)CCC(=O)OC[C@H]2O[C@H](c3ccccc3)C=C[C@@H]2Oc2ccc(OC)cc2)cc1", "composite z-score", -0.63),
    ("CCOC(=O)[C@H](Cc1ccccc1)NC(=O)OC1CC(CCC2CC(CC)=NO2)OC2(CCCC(COC(=O)NCCC(C)C)O2)C1 (some centres not stated)", "composite z-score", 0.426),
    ("CC(=O)O[C@H]1C2=CO[C@H](C)[C@H]3[C@H]4C5=C([C@H](O)[C@H]6O[C@H]6C5=O)[C@H](OC4C)[C@@]23C(=O)[C@@H]2O[C@@H]21 (some centres not stated)", "composite z-score", -0.935),
    ("CC(CCN1CCCc2nc(C)c(C)cc21)=NO[C@@H](C)c1cc(-c2c(C)cc(C)cc2C)no1", "composite z-score", 0.446),
]

---

# target system: Left-right determination factor 2 (Homo sapiens) (UniProt O00292)
# Sequence (O00292 whole entry, looked up): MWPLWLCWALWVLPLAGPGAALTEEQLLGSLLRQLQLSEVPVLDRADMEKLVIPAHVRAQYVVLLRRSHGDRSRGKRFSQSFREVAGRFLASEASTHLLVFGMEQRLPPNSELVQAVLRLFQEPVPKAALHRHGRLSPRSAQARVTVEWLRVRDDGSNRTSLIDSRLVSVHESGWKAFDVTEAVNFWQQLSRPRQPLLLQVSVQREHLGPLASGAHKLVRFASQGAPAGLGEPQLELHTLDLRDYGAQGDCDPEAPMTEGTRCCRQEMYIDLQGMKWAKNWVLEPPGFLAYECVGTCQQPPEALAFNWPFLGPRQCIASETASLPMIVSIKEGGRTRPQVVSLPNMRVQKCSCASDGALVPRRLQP
# experimental protocol: LEFTY2 binders on small-molecule microarrays, primary screen, biochemical, small-molecule microarray, 635 nm fluorescence scan (AID 1110)
# test settings: LEFTY2 binding, higher = more signal
Note to self: values exactly at 0.4 are Met. So composite z-score at or above 0.4 is Met, below is Not met.

# compound, target system, assigned label
data = [
    ("Cc1ccc(S(=O)(=O)N[C@H]2COC(=O)CC=C[C@@H](C)COC(=O)CC=C[C@@H]2C)cc1", "Left-right determination factor 2 (Homo sapiens) (UniProt O00292)", "Met"),
    ("CC(C)CCN1CCc2nc(COc3ccccc3)c3c(c2C1)CO[C@@H](C)C3", "Left-right determination factor 2 (Homo sapiens) (UniProt O00292)", "Not met"),
    ("COC(=O)[C@@H]1CC[C@H](C)[C@@H](c2ccc(C)cc2)N1C(=O)c1ccc(C=NO[C@@H](C)c2cn([C@H](CO)Cc3ccccc3)nn2)cc1", "Left-right determination factor 2 (Homo sapiens) (UniProt O00292)", "Met"),
    ("CO[C@H](C1CCCCC1)[C@H](C)C=CCC(=O)OCCCc1ccccc1", "Left-right determination factor 2 (Homo sapiens) (UniProt O00292)", "Not met"),
    ("COC(=O)[C@H](C)NC(=O)CCC1CC(OC(=O)NCCc2ccc(F)cc2)CC2(CCCC(COC(=O)NCc3cccc(C(F)(F)F)c3)O2)O1 (stereo partly specified)", "Left-right determination factor 2 (Homo sapiens) (UniProt O00292)", "Met"),
    ("CCCNC(=O)OC[C@H]1O[C@H](c2ccccc2)C=C[C@@H]1Oc1ccc(OC)cc1", "Left-right determination factor 2 (Homo sapiens) (UniProt O00292)", "Met"),
    ("CCCNC(=O)OC[C@H]1O[C@H](CCON=C(C)CCC(=O)OC[C@H]2O[C@H](c3ccccc3)C=C[C@@H]2Oc2ccc(OC)cc2)C=C[C@@H]1Oc1ccc(OC)cc1", "Left-right determination factor 2 (Homo sapiens) (UniProt O00292)", "Not met"),
    ("COc1ccc(COC(=O)NN=C2C[C@@H](O)[C@@H](O)[C@@H]3[C@@H]4C(=O)N(C5CCCCC5)C(=O)[C@@H]4CC[C@H]23)cc1", "Left-right determination factor 2 (Homo sapiens) (UniProt O00292)", "Not met"),
    ("COc1ccc(O[C@H]2C=C[C@@H](c3ccccc3)O[C@@H]2CON=C(C)C)cc1", "Left-right determination factor 2 (Homo sapiens) (UniProt O00292)", "Not met"),
    ("C#CCCCON=C1C[C@@H](O)[C@@H](O)[C@@H]2[C@@H]3C(=O)N(c4ccc(F)cc4F)C(=O)[C@@H]3CC[C@@H]12", "Left-right determination factor 2 (Homo sapiens) (UniProt O00292)", "Not met"),
    ("CCC=CCCC(OC(=O)c1ccc(Br)cc1)C1=CCCCC1=O (stereo unspecified)", "Left-right determination factor 2 (Homo sapiens) (UniProt O00292)", "Met"),
    ("CCCCC#C[C@@H]1C=C[C@H](Oc2cc(OC)c(OC)c(OC)c2)[C@@H](COC(=O)OCC)O1", "Left-right determination factor 2 (Homo sapiens) (UniProt O00292)", "Not met"),
    ("COCOc1ccc(Br)cc1C(=O)[C@@H]1O[C@H]1c1cccc(OC)c1", "Left-right determination factor 2 (Homo sapiens) (UniProt O00292)", "Not met"),
    ("Cc1ccc(S(=O)(=O)N[C@@H]2COC(=O)[C@@H](C)COC(=O)CC=C[C@H]2C)cc1", "Left-right determination factor 2 (Homo sapiens) (UniProt O00292)", "Met"),
    ("O=C1C[C@@H](O)[C@@H](O)[C@@H]2[C@@H]3C(=O)N(c4cccc(Oc5ccccc5)c4)C(=O)[C@@H]3CC[C@H]12", "Left-right determination factor 2 (Homo sapiens) (UniProt O00292)", "Met"),
    ("CO[C@H]1COC(=O)CC=C[C@H](C)[C@@H](OC)COC(=O)[C@@H](C)COC(=O)CC=C[C@@H]1C", "Left-right determination factor 2 (Homo sapiens) (UniProt O00292)", "Met"),
]
